Biological target: T1, HLA-B*07:02 (human)
T1 construct: Peptide-receptive MHC class I monomer made by UV cleavage of a UV-sensitive ligand
Experiment: UV ligand exchange ELISA; exchange yield grade
assay-metric: peptide exchange yield

• SPRSWIQVQI = 50 to 75%
• RPSNKAPLL = 50 to 75%
• IPASHPVL = 20 to 50%
• APRPAGSYL = 50 to 75%
• KPKAAKPKA = 20 to 50%
• FPAPILRAV = 50 to 75%
• SPRVYWLGL = 50 to 75%
• SPSLPNITL = 50 to 75%
• SPWLHAPSL = 20 to 50%
• KARKSAGAA = 50 to 75%
• SESPWLHAPSL = 50 to 75%
• SPRNLQPQRAAL = 50 to 75%
• RPHIPISKL = 20 to 50%
• YPIALTRAEM = 50 to 75%
• KPKAAKPKAA = 20 to 50%
• YPGSDRIML = 20 to 50%
